Origin of measurements: the supplement of paper PMC9233669

# Tested on: biotinyl-Ile-oxazolone
# RUN DESCRIPTION: self-aminoacylation, catalytic enhancement (BIO) (fold over background); higher = more active; k-Seq, kA / k0A0; sequences stand for … in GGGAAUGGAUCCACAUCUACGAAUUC…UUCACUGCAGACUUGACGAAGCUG
Fewer inactive variants are shown than the library holds.
MEASURED ATTRIBUTE: self-aminoacylation
I only need the number, thanks.

Recorded results for 5 sequences are shown here.
>>> recorded_number("AUUCACCGAGGUCGUCGGGUG [Fam2.2 aminoacylation ribozyme variant]")
2.55
>>> recorded_number("CUACUUCAAACAACCUGUCUG [Fam1A.1 aminoacylation ribozyme variant]")
0.74
>>> recorded_number("AAGUUUGCUAAUAGUUGCAAU [Fam3.1 aminoacylation ribozyme variant]")
1.26
>>> recorded_number("AUUCACCUGAGUCAUCGGGUG [Fam2.2 aminoacylation ribozyme variant]")
5.26
>>> recorded_number("CUUCACCUAGGUCAUCGGGUG [Fam2.2 aminoacylation ribozyme variant]")
4.63

Look up self-aminoacylation of CUACUUAAAACAAUCGGUCUA [Fam1A.1 aminoacylation ribozyme variant] and report it.
0.766

Look up self-aminoacylation of AGUCACCUUGGUCAUCGGGUG [Fam2.2 aminoacylation ribozyme variant] and report it.
4.89

Look up self-aminoacylation of AUUAACCUAAGUCAUCGGGUG [Fam2.2 aminoacylation ribozyme variant] and report it.
4.9

Look up self-aminoacylation of AUUCAUCUUGGUCAUCGGGUG [Fam2.2 aminoacylation ribozyme variant] and report it.
4.97

Look up self-aminoacylation of CCGCACUCCAAGCAAUCGGUC [Fam1B.1 aminoacylation ribozyme variant] and report it.
1.14

Look up self-aminoacylation of AUUCCCCUACGUCAUCGGGUG [Fam2.2 aminoacylation ribozyme variant] and report it.
10.9

Look up self-aminoacylation of AUACACCUAGGGCAUCGGGUG [Fam2.2 aminoacylation ribozyme variant] and report it.
2.99

Look up self-aminoacylation of UAGUUUGCUAAUAAUCGCAAG [Fam3.1 aminoacylation ribozyme variant] and report it.
1.11

Look up self-aminoacylation of CUACACUUCAAGCAAUCGGCC [Fam1B.1 aminoacylation ribozyme variant] and report it.
1.82

Look up self-aminoacylation of CCACACUUCAAGGAAUCGGUU [Fam1B.1 aminoacylation ribozyme variant] and report it.
1.34

Look up self-aminoacylation of AUUACGCGGGUCAUCGAGUGA [Fam2.1 aminoacylation ribozyme variant] and report it.
3.23

Look up self-aminoacylation of AAGUUUGCUACUAGCCGCAAG [Fam3.1 aminoacylation ribozyme variant] and report it.
0.746

Look up self-aminoacylation of CCACACUUCAGGUAAUCGGUC [Fam1B.1 aminoacylation ribozyme variant] and report it.
0.805
